experiment-notes: protease stability score; higher = more stable; yeast display proteolysis, trypsin and chymotrypsin;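 further: log10 excess protease needed over predicted unfolded state with 0 meaning unfolded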
Rule: protease stability score of 0.2 or more gives Condition met; anything lower gives Condition not met.

DEKLLELAKKMRRAEETGDEDQLREMADKDAKFDIGDKRIHGMDTFVRQIKHELDKMRREITSVEFRVEGEEVVIHVHWVYSHNGQPRTKEYTMKFEIRGDKIKDLHIDNRG; Condition not met
DEEIKRHIKEMMEAISHGDPDQLRRLFDPNVDIRVGDKEITGMEEYLHQLKHKLDSAEFEYKHYEVKVRNGSVRARYEYIVRINGRPNSVTAEVEIKMTNGKAKHAVYRFSDEDKKRLEG; Condition met
EEELERRVEDQFKDWNTGDPDRDREMFDKDATVRVGDKKIKGSSQFRDELEKRRREMEFHVEVKDIQDEPGRVNVTFKFRTNHNGQPKEDTMRFHMTWHNGRIKHMSIHHDG; Condition met
DERIKDTVDQMWSAVKNNDPDQMNENFDPNARIEVGDKEVHGRDTLKKWQDTQNKRSNKDMESVSVKVDGDKVDIEAESKFTNNGQPHTNKMTASARLENGRFKEVHIDSRK; Condition not met
DEEDNETALRTMMELIVEGNTNQAHRLFDENATVKIGDTTFHGREQIAQAIRHLHEQADHMEVKDFRLTGDKARANVQLHHNGKTIEVDVVFRVSNGRVKHMFIDPQQVRHLRG; Condition met
DKDLIERDKQWWTAVRHNNPDRLSENVDENASVRIGDKEVHGRKDISRLIKHLRDTMHESYKIERVNKEEGRANIQASATRDHNGRPRTARVQVIVEAHNGRIKRIQVQFNS; Condition not met
EEKIVDILERMVTALHTGDPDTVHENLDPNAHVVIGDKEFTGMDTMHRTLERQKKEIRIQINSYSVHAQGNKADIDIDMVNEHNGHPDRNRYRVDAKVHNGKIKQVRYEEVS; Condition not met
DDDRRRQAEEILKIFETGDPQKLRSQFDPNARMHYGDKTIHGMEHAAESMERWQNEMRIELKSYSFRKQGDKVQIDAHFVVHHNGKPDTVKIHIRMELDGDKVREVSVEHTQ; Condition met
DEEVKTLVERLVEALNTGDPDSAMHLVDENAKFQYGDRELHGRENVHKFVEDMKREIRIDMEVKRLRVEPGRVKLTAEFSLSVNGQPDHQSVTMRATAHNGQLKDVQFRLPPEKLEKLKS; Condition not met
DEEKNRKQATKVARNIADGNEDEIRKLADEDARANVGDKQVHGRDHVRKLLSDFHHTADRVKLDTINVSGDKVNAKLVLDYNGRRVSVVVQAEVRNGRLKQVNIRATNPEHQKKVES; Condition met

Could you now look at the following sequence, please?
Check the entry DEKANTQAKRLLDVMNSGDEEKILRQMDEDVEVVIGDTKVKGREDIRRWMQKVLKELRVVYDLKHLRAHNGKIDIKAKMHNNHNGQPNSNDVIIIAKIHNGRFKHFEVHTQS : does protease stability score equal or exceed 0.2?
Condition met

----------
experiment-notes: protease stability score; higher = more stable; yeast display proteolysis, trypsin and chymotrypsin;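 further: log10 excess protease needed over predicted unfolded state with 0 meaning unfolded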
measurement-type: protease stability score
// keep it numeric: no unit symbol after the value

DQEEVEQAKKFVEAQKSGDPDQLNDLADPNVELEIGDQELHGREDLHDWANHQNKHMRMEVRDVKAQDKPNHVEVHIRFVINVNGKPRDTTVEVDFSAENGHIKKIKFQIDHHELRKLEK; -0.154

Please turn your attention to the following entry.
State its protease stability score: DKDDFKEAEHILRTGDPDEWSKMVDPNARAEVGDEEIHGKEEFDRWMQKKKKRVDHEQVKSVDFHGDKWRVVLVFNVNGRQADVVMVMQVHNGRLVYQVVRFRDHQVKDVVRKRLS
0.336
